# measurement target: SurA (Escherichia coli)
# assay: biochemical
# Format: binding, E. coli
pKd: −log10 of the molar value.
endpoint label: pKd

Recorded pKd (compound CN(C)c1ccc(-c2nc3cc(NC(=O)Cn4cc5ccccc5n4)ccc3[nH]2)cc1 ): 4.52 to 4.70

* * *

# measurement target: SurA (Escherichia coli, UniProt P0ABZ6)
# Sequence (P0ABZ6 21-428): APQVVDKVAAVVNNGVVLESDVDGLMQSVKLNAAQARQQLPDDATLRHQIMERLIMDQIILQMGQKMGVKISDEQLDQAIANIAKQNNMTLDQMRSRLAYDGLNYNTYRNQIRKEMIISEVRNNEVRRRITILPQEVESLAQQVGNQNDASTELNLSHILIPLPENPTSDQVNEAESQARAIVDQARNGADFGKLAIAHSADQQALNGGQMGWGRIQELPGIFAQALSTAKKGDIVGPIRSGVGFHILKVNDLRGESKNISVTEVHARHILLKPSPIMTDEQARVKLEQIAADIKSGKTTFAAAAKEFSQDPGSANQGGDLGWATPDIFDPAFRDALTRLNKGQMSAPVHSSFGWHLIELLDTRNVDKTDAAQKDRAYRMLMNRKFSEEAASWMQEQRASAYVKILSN
# assay: biochemical
# Format: binding, E. coli
# condition info: read-out: MST (Kd in mM)
endpoint label: Kd

The value of Kd measured for the compound CN(C)c1ccc(-c2nc3cc(NC(=O)Cn4cc5ccccc5n4)ccc3[nH]2)cc1 turned out to be 0.02 to 0.03 mM

Hey, just so you know, these numbers are from patent EP4198025A1.
